Reference for the values: patent US9273084B2

System: E. faecalis 29212
Experiment: MIC assay, 96 well broth dilution with MTT staining
Format: cell-based
Set-up: unit not given beside the values
Details: BHI containing 0.1% casamino acids, 35-37° C., 20 h
Structures can show the parent of a compound that is named as a salt.
Measured MIC values are reported for all entries that follow.

{"COMPOUND": "CC(=O)NC1C(OC2C(COC3OC(CO)C(O)C(O)C3O)OC(OC3C(OP(=O)(O)OCC(OCc4cccc(OCc5cccc(-c6cccc(OCc7ccccc7)c6)c5)c4)C(=O)O)OC(C(N)=O)C(C)(O)C3OC(N)=O)C(NC(C)=O)C2O)OC(C)C(OC2OC(C(=O)NC3=C(O)CCC3=O)C(O)C(O)C2O)C1O.N (stereo not drawn) [1i]", "MIC": 16}
{"COMPOUND": "CC(=O)NC1C(OC2C(COC3OC(CO)C(O)C(O)C3O)OC(OC3C(OP(=O)(O)OCC(OCC=C(C)CCC=C(C)CCC=C(C)C)C(=O)O)OC(C(N)=O)C(C)(O)C3OC(N)=O)C(NC(C)=O)C2O)OC(C)C(OC2OC(C(=O)NC3=C(O)CCC3=O)C(O)C(O)C2O)C1O.N (stereo not drawn) [1c]", "MIC": "250 >250"}
{"COMPOUND": "CC(=O)NC1C(OC2C(COC3OC(CO)C(O)C(O)C3O)OC(OC3C(OP(=O)(O)OCC(OCc4cccc(OCc5cccc(-c6cccc(OCc7cccc(-c8ccccc8)c7)c6)c5)c4)C(=O)O)OC(C(N)=O)C(C)(O)C3OC(N)=O)C(NC(C)=O)C2O)OC(C)C(OC2OC(C(=O)NC3=C(O)CCC3=O)C(O)C(O)C2O)C1O.N (stereo not drawn) [1h]", "MIC": 0.39}
{"COMPOUND": "CC(=O)NC1C(OC2C(COC3OC(CO)C(O)C(O)C3O)OC(OC3C(OP(=O)(O)OCC(OCc4cccc(OCc5cccc(-c6cccc(C)c6)c5)c4)C(=O)O)OC(C(N)=O)C(C)(O)C3OC(N)=O)C(NC(C)=O)C2O)OC(C)C(OC2OC(C(=O)NC3=C(O)CCC3=O)C(O)C(O)C2O)C1O.N (stereo not drawn) [1j]", "MIC": ">250 >250"}
{"COMPOUND": "CN[C@H](CC(C)C)C(=O)N[C@H]1C(=O)N[C@@H](CC(N)=O)C(=O)N[C@H]2C(=O)N[C@H]3C(=O)N[C@H](C(=O)N[C@H](C(=O)O)c4cc(O)cc(O)c4-c4cc3ccc4O)[C@H](O)c3ccc(c(Cl)c3)Oc3cc2cc(c3O[C@@H]2O[C@H](CO)[C@@H](O)[C@H](O)[C@H]2O[C@H]2C[C@](C)(N)[C@H](O)[C@H](C)O2)Oc2ccc(cc2Cl)[C@H]1O [Vancomycin•HCl, reference compound]", "MIC": 3.9}
{"COMPOUND": "CCCCCCCCCCCCCCCCOC(COP(=O)(O)OC1OC(C(N)=O)C(C)(O)C(OC(N)=O)C1OC1OC(COC2OC(CO)C(O)C(O)C2O)C(OC2OC(C)C(OC3OC(C(=O)NC4=C(O)CCC4=O)C(O)C(O)C3O)C(O)C2NC(C)=O)C(O)C1NC(C)=O)C(=O)O.N (stereo not drawn) [1g]", "MIC": 31}

====

System: S. epidermidis 1228
Experiment: MIC assay, 96 well broth dilution with MTT staining
Type: cell-based
Set-up: unit not given beside the values
Conditions: BHI containing 0.1% casamino acids, 35-37° C., 20 h
Procedure: A 96 well plate with 100 μL test medium in all wells was prepared by handheld multipipettor. A stock solution of the antibiotic or compound in DMSO (0.05˜10 mg/mL, 5 μL) and the same medium (95 μL) were put together into column one, where the compound concentration doubled the highest one to be tested. Two columns were necessary for each compound to check the reproducibility. […]
Counter-ions that a name gives are not always drawn.
MIC reference

{"COMPOUND": "CCCCCCCCCCCCCCCCCCCCOC(COP(=O)(O)OC1OC(C(N)=O)C(C)(O)C(OC(N)=O)C1OC1OC(COC2OC(CO)C(O)C(O)C2O)C(OC2OC(C)C(OC3OC(C(=O)NC4=C(O)CCC4=O)C(O)C(O)C3O)C(O)C2NC(C)=O)C(O)C1NC(C)=O)C(=O)O.N (stereo not shown)", "MIC": 0.63}
{"COMPOUND": "CC(=O)NC1C(OC2C(COC3OC(CO)C(O)C(O)C3O)OC(OC3C(OP(=O)(O)OCC(OCCCCCCCCCCC(F)(F)C(F)(F)C(F)(F)C(F)(F)C(F)(F)C(F)(F)C(F)(F)C(F)(F)F)C(=O)O)OC(C(N)=O)C(C)(O)C3OC(N)=O)C(NC(C)=O)C2O)OC(C)C(OC2OC(C(=O)NC3=C(O)CCC3=O)C(O)C(O)C2O)C1O.N (stereo not shown)", "MIC": 0.98}
{"COMPOUND": "CC(=O)NC1C(OC2C(COC3OC(CO)C(O)C(O)C3O)OC(OC3C(OP(=O)(O)OCC(OCc4cccc(OCc5cccc(-c6cccc(C)c6)c5)c4)C(=O)O)OC(C(N)=O)C(C)(O)C3OC(N)=O)C(NC(C)=O)C2O)OC(C)C(OC2OC(C(=O)NC3=C(O)CCC3=O)C(O)C(O)C2O)C1O.N (stereo not shown)", "MIC": 125}
{"COMPOUND": "CC(=O)NC1C(OC2C(COC3OC(CO)C(O)C(O)C3O)OC(OC3C(OP(=O)(O)OCC(OCc4cccc(OCc5cccc(-c6cccc(OCc7ccccc7)c6)c5)c4)C(=O)O)OC(C(N)=O)C(C)(O)C3OC(N)=O)C(NC(C)=O)C2O)OC(C)C(OC2OC(C(=O)NC3=C(O)CCC3=O)C(O)C(O)C2O)C1O.N (stereo not shown)", "MIC": 3.9}
{"COMPOUND": "CN[C@H](CC(C)C)C(=O)N[C@H]1C(=O)N[C@@H](CC(N)=O)C(=O)N[C@H]2C(=O)N[C@H]3C(=O)N[C@H](C(=O)N[C@H](C(=O)O)c4cc(O)cc(O)c4-c4cc3ccc4O)[C@H](O)c3ccc(c(Cl)c3)Oc3cc2cc(c3O[C@@H]2O[C@H](CO)[C@@H](O)[C@H](O)[C@H]2O[C@H]2C[C@](C)(N)[C@H](O)[C@H](C)O2)Oc2ccc(cc2Cl)[C@H]1O [Vancomycin•HCl, reference compound]", "MIC": 2.0}
{"COMPOUND": "CCCCCCCCCCCCCCCCOC(COP(=O)(O)OC1OC(C(N)=O)C(C)(O)C(OC(N)=O)C1OC1OC(COC2OC(CO)C(O)C(O)C2O)C(OC2OC(C)C(OC3OC(C(=O)NC4=C(O)CCC4=O)C(O)C(O)C3O)C(O)C2NC(C)=O)C(O)C1NC(C)=O)C(=O)O.N (stereo not shown)", "MIC": 16}
